- STUDY TARGET: Cav1.2 (Homo sapiens)
- Sequence (Q13936 whole entry): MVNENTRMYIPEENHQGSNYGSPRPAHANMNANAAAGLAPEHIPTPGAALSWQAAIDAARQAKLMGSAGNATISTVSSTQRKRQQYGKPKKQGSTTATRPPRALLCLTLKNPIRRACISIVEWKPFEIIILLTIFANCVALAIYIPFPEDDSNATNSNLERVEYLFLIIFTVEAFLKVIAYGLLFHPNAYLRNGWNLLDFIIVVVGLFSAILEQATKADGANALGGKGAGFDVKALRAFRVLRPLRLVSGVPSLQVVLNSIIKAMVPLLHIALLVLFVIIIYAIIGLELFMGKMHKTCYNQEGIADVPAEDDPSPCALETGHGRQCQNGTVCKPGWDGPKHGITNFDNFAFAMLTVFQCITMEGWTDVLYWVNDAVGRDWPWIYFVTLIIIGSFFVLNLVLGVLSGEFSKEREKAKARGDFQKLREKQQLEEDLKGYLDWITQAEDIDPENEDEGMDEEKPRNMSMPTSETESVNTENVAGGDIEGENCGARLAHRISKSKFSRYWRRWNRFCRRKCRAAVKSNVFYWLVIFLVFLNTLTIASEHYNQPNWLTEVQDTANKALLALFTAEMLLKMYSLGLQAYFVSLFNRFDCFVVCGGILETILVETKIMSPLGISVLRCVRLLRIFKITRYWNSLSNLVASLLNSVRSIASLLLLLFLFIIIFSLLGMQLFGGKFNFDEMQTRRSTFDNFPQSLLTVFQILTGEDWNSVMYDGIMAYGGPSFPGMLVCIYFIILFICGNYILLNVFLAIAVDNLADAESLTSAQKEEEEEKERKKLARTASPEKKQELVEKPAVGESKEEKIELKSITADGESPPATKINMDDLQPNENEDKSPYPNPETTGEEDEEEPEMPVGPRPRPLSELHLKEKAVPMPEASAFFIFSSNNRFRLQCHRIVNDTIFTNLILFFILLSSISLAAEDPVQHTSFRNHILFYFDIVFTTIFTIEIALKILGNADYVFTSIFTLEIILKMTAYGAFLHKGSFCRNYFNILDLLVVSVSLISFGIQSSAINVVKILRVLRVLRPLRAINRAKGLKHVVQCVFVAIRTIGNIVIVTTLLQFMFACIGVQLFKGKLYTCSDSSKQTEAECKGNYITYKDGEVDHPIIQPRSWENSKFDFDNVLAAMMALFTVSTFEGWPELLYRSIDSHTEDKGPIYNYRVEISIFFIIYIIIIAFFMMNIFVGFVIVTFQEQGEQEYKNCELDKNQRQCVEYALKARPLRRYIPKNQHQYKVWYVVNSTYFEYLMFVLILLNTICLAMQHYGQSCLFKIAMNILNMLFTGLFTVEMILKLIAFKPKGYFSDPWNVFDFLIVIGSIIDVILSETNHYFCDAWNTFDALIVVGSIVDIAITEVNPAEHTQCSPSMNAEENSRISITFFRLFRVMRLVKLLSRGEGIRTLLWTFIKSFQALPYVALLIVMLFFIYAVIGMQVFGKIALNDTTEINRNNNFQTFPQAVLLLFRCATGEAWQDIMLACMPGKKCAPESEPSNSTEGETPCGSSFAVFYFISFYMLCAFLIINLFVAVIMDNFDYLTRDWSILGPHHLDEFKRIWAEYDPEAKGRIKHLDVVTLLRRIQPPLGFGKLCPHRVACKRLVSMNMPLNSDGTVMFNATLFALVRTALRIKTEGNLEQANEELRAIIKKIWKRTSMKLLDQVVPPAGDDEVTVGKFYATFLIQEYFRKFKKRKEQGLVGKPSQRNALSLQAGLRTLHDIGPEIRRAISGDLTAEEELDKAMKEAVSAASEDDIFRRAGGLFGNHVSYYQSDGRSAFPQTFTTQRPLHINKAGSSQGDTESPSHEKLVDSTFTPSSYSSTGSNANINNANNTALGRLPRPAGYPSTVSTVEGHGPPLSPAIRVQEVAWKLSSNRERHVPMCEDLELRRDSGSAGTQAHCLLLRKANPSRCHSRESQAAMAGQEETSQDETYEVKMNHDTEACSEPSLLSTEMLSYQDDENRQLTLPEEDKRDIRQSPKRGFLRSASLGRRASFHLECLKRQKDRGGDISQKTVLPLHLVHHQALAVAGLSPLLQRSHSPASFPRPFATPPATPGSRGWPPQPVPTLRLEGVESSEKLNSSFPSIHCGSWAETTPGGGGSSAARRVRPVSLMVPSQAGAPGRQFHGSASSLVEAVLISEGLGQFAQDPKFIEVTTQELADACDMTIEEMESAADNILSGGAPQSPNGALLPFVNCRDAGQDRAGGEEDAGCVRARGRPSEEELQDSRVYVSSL
- ASSAY NOTES: Inhibition of recombinant human Cav1.2 expressed in human HEK293 cells at 100 uM measured at peak current by automated Qpatch clamp assay relative to control
- Format: ADME, cell-based
- CONDITIONS USED: HEK293 cells expressing recombinant human Cav1.2
REPORTED ENDPOINT: inhibition at 100 µM

Which inhibition at 100 µM value belongs to COc1ccc2ncc(F)c(C[C@H](O)[C@H]3OC[C@H](NCc4cc5c(nn4)OCCS5)CO3)c2n1 ?
< 25%

* * *

- ASSAY NOTES: Metabolic stability in CD1 mouse liver microsomes assessed as half life at 2 uM measured up to 120 mins by LC-MS/MS analysis
- Assay type: ADME, Microsome
REPORTED ENDPOINT: half-life at 2 µM
Show the value, then the unit it is measured in.

Request the reported half-life at 2 µM associated with COc1ccc2nccc(CCN3CCC(NCc4ccc5c(c4)OCCO5)CC3)c2c1
2.81 min

Need half-life at 2 µM, item COc1ccc2ncc(F)c(C(O)C[C@H]3OC[C@H](NCc4ccc5c(c4)OCCO5)CO3)c2c1 (mixture of isomers)
6.54 min

***
What value of measured half-life at 2 µM is listed for COc1ccc2ncc(F)c(CC[C@H]3OC[C@H](NCc4ccc5c(c4)OCCO5)CO3)c2n1 ?
2.43 min

What does the record list as half-life at 2 µM for COc1ccc2nccc(CCN3CCC(NCc4cc5c(cn4)OCCO5)CC3)c2c1 ?
2.54 min

* * *

- STUDY TARGET: hERG (KCNH2) (Homo sapiens)
- Sequence (Q12809 whole entry): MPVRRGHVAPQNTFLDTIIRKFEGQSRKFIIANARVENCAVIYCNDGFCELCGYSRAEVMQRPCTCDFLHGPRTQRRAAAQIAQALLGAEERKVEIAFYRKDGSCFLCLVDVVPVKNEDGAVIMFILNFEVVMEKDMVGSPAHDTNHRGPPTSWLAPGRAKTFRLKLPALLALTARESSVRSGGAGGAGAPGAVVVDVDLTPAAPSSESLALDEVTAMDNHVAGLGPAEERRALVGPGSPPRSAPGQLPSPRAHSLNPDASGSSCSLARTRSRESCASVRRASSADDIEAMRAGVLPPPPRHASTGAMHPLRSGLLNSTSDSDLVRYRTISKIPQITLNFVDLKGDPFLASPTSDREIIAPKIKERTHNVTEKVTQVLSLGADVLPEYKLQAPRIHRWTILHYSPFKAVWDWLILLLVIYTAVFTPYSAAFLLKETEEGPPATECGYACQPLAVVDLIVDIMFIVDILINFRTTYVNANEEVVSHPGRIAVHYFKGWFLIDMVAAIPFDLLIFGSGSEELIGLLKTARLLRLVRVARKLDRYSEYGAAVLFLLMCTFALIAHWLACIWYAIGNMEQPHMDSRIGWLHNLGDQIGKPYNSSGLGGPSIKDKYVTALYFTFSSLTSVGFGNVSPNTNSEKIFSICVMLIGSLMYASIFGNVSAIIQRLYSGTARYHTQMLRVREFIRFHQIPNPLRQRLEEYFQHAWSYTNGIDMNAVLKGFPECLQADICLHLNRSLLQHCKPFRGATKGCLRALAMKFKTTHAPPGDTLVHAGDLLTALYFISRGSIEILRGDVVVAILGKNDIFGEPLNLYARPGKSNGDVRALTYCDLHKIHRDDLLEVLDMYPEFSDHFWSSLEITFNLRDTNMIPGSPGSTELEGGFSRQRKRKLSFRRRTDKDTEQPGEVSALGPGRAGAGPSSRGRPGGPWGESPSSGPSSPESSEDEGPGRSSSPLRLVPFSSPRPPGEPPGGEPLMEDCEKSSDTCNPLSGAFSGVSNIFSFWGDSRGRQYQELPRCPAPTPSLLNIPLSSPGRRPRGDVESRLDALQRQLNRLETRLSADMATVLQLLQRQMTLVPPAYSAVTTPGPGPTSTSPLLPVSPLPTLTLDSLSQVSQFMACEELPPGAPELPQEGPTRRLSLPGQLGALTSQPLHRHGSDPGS
- ASSAY NOTES: Inhibition of recombinant human ERG expressed in CHO-K1 cells at 100 uM at -80 mV holding potential tail current by automated Qpatch clamp assay relative to control
- Type: ADME, cell-based
- CONDITIONS USED: CHO-K1 cells expressing recombinant human ERG
REPORTED ENDPOINT: inhibition at 100 µM

Which inhibition at 100 µM is reported with hERG (KCNH2) (Homo sapiens) for this entry: COc1ccc2ncc(F)c(C[C@H](O)[C@H]3OC[C@H](NCc4cc5c(nn4)OCCS5)CO3)c2n1 ?
< 25%

* * *

- Test system: Staphylococcus aureus
- ASSAY NOTES: Selectivity index, ratio of IC50 for inhibition of Staphylococcus aureus topoisomerase IV decatenation activity to IC50 for inhibition of Staphylococcus aureus DNA gyrase supercoiling activity
REPORTED ENDPOINT: Ratio IC50
Reply with the value as a number alone.

Record COc1ccc2ncc(F)c(C[C@H](O)[C@H]3OC[C@H](NCc4cc5c(cn4)OCO5)CO3)c2n1 : what is its Ratio IC50 with Staphylococcus aureus?
22

Find the measured Ratio IC50: item COc1ccc2ncc(F)c(C[C@H](O)[C@H]3OC[C@H](NCc4cc5c(cn4)OCCO5)CO3)c2c1 , target or system Staphylococcus aureus.
136

Which measured Ratio IC50 belongs to COc1ccc2ncc(F)c(C[C@H](O)[C@H]3OC[C@H](NCc4cc5c(nn4)OCCS5)CO3)c2c1 , tested on Staphylococcus aureus?
87

More entries:
// lookup Ratio IC50 | system=Staphylococcus aureus | key= COc1ccc2ncc(F)c(C[C@H](O)[C@H]3OC[C@H](NCc4cc5c(nn4)OCCO5)CO3)c2c1
10

# query: Ratio IC50 | item COc1ccc2ncc(F)c(C(O)C[C@H]3OC[C@H](NCc4cc5c(nn4)OCCS5)CO3)c2n1 (mixture of isomers) | system: Staphylococcus aureus
47

These entries and their values trace back to ChEMBL document CHEMBL4837261.
